tested on: THRa:RXRa (NR concentration 90 nM, RXRa partner concentration 90 nM); experiment: PBM binding z-score (relative to random genomic background probes); higher = stronger binding; sequences stand for … in GC…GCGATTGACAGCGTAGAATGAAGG
Classify as follows. Reported PBM binding z-score greater than or equal to 2: 1.0. Reported PBM binding z-score below: 0.0.

{"columns": ["Sequence entry", "Class assignment"],
 "data": [
  ["AGGACGAGGGCACGCTGAGTTGATAGCAGAGTAG", 0.0],
  ["TCATATAGGTAAATAGGTGAAAGTCCGTAAGTTA", 0.0],
  ["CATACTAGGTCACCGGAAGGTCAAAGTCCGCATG", 1.0],
  ["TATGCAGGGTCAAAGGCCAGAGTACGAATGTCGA", 1.0],
  ["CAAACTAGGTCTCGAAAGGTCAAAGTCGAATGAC", 1.0],
  ["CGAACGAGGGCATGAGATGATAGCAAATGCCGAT", 0.0],
  ["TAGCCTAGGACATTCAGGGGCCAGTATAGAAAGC", 0.0],
  ["CCTCGGCGGACAGAAGGTCAGAGCTGTCCGCTTT", 0.0],
  ["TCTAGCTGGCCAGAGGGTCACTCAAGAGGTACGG", 0.0],
  ["CAAACTAGGTCACGAAAGGTCAAAGTAGAATGAC", 1.0],
  ["ATATGTAGGTTATCGGGTCATTTAGTTTGCGCAT", 1.0],
  ["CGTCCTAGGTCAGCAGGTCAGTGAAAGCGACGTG", 1.0],
  ["ACTCCGAGGACAAAGGTCAGAGCTACGCCAGTGA", 1.0],
  ["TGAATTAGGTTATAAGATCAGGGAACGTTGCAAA", 0.0],
  ["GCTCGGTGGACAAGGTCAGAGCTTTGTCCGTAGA", 1.0],
  ["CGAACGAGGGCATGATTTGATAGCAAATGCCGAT", 0.0],
  ["CCTACTGGGCCATTCAGAGGTCGTTGATCATATG", 0.0],
  ["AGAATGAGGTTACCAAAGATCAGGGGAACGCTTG", 1.0],
  ["CCTCACGGGTCACTCCAGGTTATAGCATCGGAGT", 1.0],
  ["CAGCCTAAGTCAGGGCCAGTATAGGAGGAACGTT", 0.0],
  ["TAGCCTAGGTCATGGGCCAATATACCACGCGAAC", 1.0],
  ["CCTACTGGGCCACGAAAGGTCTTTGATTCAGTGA", 0.0],
  ["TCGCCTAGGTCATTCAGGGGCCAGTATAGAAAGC", 1.0],
  ["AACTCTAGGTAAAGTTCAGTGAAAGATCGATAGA", 0.0],
  ["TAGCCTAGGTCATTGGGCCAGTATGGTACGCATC", 1.0],
  ["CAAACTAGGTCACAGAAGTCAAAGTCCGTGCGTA", 1.0],
  ["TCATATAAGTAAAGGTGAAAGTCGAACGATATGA", 0.0],
  ["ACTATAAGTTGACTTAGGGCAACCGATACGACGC", 1.0],
  ["TAGCCTAGGTGAGATCGGGCCAGTATACGCTATA", 0.0],
  ["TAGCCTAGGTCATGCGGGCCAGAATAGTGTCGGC", 1.0],
  ["ATACCAAGCTGATCGTGAGGTCGTTGATACTAAC", 1.0],
  ["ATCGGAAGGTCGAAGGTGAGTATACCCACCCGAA", 0.0],
  ["CATACAGGGTCAGCTAGGCCAGAGCAGGGACGGC", 1.0],
  ["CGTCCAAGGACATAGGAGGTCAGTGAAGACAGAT", 1.0],
  ["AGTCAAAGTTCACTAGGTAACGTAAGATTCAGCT", 1.0],
  ["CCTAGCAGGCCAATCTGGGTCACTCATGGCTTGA", 1.0],
  ["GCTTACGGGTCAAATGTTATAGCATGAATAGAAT", 1.0],
  ["ACTATTAGTTGACTTTGGGCAACCGATACGACGC", 0.0],
  ["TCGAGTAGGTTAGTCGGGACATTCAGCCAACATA", 0.0],
  ["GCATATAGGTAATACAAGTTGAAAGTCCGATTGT", 0.0],
  ["TCTAGTTGGACACGGAGGTCACACACGACGGGTA", 1.0],
  ["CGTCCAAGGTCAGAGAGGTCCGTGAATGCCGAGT", 1.0],
  ["GCAGACTGGTGAAACGCAGGTAACTCAGGGTGGC", 0.0],
  ["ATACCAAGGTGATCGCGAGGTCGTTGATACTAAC", 1.0],
  ["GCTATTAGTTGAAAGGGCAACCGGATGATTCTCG", 0.0],
  ["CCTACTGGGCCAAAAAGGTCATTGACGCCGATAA", 1.0],
  ["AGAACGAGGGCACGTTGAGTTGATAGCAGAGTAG", 0.0],
  ["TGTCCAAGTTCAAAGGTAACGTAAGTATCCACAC", 1.0],
  ["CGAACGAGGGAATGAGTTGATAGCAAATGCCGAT", 0.0],
  ["TTACCAAGGTGAAGGTCTTTGATCCCTCTGTAGA", 0.0],
  ["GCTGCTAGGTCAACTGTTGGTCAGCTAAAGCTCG", 1.0]
]}
